Reported Cmax values for the following compounds.
# Experimental protocol: Pharmacokinetics in rats (exposure and oral availability)
# Type: in vivo
# Assay conditions: male, ICR, rat, plasma, 1 mg/kg, IV (1 mpk)

>  <Compound>
Cc1c(NC(=O)c2cc(C3CC3)c(CNCC34CCC(C(=O)O)(CC3)C4)cn2)cccc1-c1cccc(NC(=O)c2cc(C3CC3)c(CNCC34CCC(C(=O)O)(CC3)C4)cn2)c1C [Example 4]

>  <Result unit>
ng/mL

>  <Cmax>
1860

$$$$
>  <Compound>
Cc1c(NC(=O)c2cc(C3CC3)c(CN[C@H](CO)C(=O)O)cn2)cccc1-c1cccc(NC(=O)c2cc(C3CC3)c(CN[C@H](CO)C(=O)O)cn2)c1C [compound 2, reference compound]

>  <Result unit>
ng/mL

>  <Cmax>
13200

$$$$
>  <Compound>
Cc1c(NC(=O)c2cc(C3CC3)c(CNC34CCC(C(=O)O)(CC3)CC4)cn2)cccc1-c1cccc(NC(=O)c2cc(C3CC3)c(CNC34CCC(C(=O)O)(CC3)CC4)cn2)c1C [Example 1]

>  <Result unit>
ng/mL

>  <Cmax>
3540

$$$$

---

# Experimental protocol: Pharmacokinetics in mice (exposure and oral availability)
# Assay type: in vivo
# Assay conditions: male, mouse, plasma, 10 mg/kg; ICR mice, PO (10 mpk) vs IV (2 mpk); read-out: Oral availability (F %)

>  <Molecule>
Cc1c(NC(=O)c2cc(C3CC3)c(CNCC34CCC(C(=O)O)(CC3)C4)cn2)cccc1-c1cccc(NC(=O)c2cc(C3CC3)c(CNCC34CCC(C(=O)O)(CC3)C4)cn2)c1C [Example 4]

>  <Result unit>
%

>  <bioavailability>
57.5

$$$$
>  <Molecule>
CCOC(=O)CNCc1cnc(C(=O)Nc2cccc(-c3cccc(NC(=O)c4cc(C5CC5)c(CNCC(=O)OCC)cn4)c3C)c2C)cc1C1CC1 [compound 3, reference compound]

>  <Result unit>
%

>  <bioavailability>
0

$$$$
>  <Molecule>
COC(=O)[C@@H](CO)NCc1cnc(C(=O)Nc2cccc(-c3cccc(NC(=O)c4cc(C5CC5)c(CN[C@H](CO)C(=O)OC)cn4)c3C)c2C)cc1C1CC1 [compound 1, reference compound]

>  <Result unit>
%

>  <bioavailability>
0

$$$$
>  <Molecule>
Cc1c(NC(=O)c2cc(C3CC3)c(CNC34CCC(C(=O)O)(CC3)CC4)cn2)cccc1-c1cccc(NC(=O)c2cc(C3CC3)c(CNC34CCC(C(=O)O)(CC3)CC4)cn2)c1C [Example 1]

>  <Result unit>
%

>  <bioavailability>
19.5

$$$$
>  <Molecule>
Cc1c(NC(=O)c2cc(C3CC3)c(CN[C@H](CO)C(=O)O)cn2)cccc1-c1cccc(NC(=O)c2cc(C3CC3)c(CN[C@H](CO)C(=O)O)cn2)c1C [compound 2, reference compound]

>  <Result unit>
%

>  <bioavailability>
0

$$$$

---

# Experimental protocol: Caco-2 membrane permeability test
# Assay conditions: human, Caco-2, pH 7.4
Reported efflux ratio at 90 min, 10 μM values for the following compounds.

>  <Compound>
Cc1c(NC(=O)c2cc(C3CC3)c(CN3CC[C@H](C(=O)O)C3)cn2)cccc1-c1cccc(NC(=O)c2cc(C3CC3)c(CN3CC[C@H](C(=O)O)C3)cn2)c1C

>  <efflux ratio at 90 min, 10 μM>
16.3

$$$$
>  <Compound>
Cc1c(NC(=O)c2cc(C3CC3)c(CNCC34CCC(C(=O)O)(CC3)C4)cn2)cccc1-c1cccc(NC(=O)c2cc(C3CC3)c(CNCC34CCC(C(=O)O)(CC3)C4)cn2)c1C

>  <efflux ratio at 90 min, 10 μM>
2.21

$$$$
>  <Compound>
Cc1c(NC(=O)c2cc(C3CC3)c(CNC34CCC(C(=O)O)(CC3)CC4)cn2)cccc1-c1cccc(NC(=O)c2cc(C3CC3)c(CNC34CCC(C(=O)O)(CC3)CC4)cn2)c1C

>  <efflux ratio at 90 min, 10 μM>
6.75

$$$$
>  <Compound>
Cc1c(NC(=O)c2cc(C3CC3)c(CN[C@H](CO)C(=O)O)cn2)cccc1-c1cccc(NC(=O)c2cc(C3CC3)c(CN[C@H](CO)C(=O)O)cn2)c1C [compound 2, reference compound]

>  <efflux ratio at 90 min, 10 μM>
0.53

$$$$

---

# Experimental protocol: Pharmacokinetics in rats (exposure and oral availability)
# Assay type: in vivo
# Assay conditions: male, ICR, rat, plasma, 5 mg/kg, PO (5 mpk) vs IV (1 mpk), read-out: Oral availability (F %)
Reported bioavailability values for the following molecules.
Attribute measured: bioavailability

>  <Molecule>
Cc1c(NC(=O)c2cc(C3CC3)c(CNC34CCC(C(=O)O)(CC3)CC4)cn2)cccc1-c1cccc(NC(=O)c2cc(C3CC3)c(CNC34CCC(C(=O)O)(CC3)CC4)cn2)c1C

>  <Result>
18.9%

$$$$
>  <Molecule>
Cc1c(NC(=O)c2cc(C3CC3)c(CNCC34CCC(C(=O)O)(CC3)C4)cn2)cccc1-c1cccc(NC(=O)c2cc(C3CC3)c(CNCC34CCC(C(=O)O)(CC3)C4)cn2)c1C

>  <Result>
44%

$$$$
>  <Molecule>
COC(=O)[C@@H](CO)NCc1cnc(C(=O)Nc2cccc(-c3cccc(NC(=O)c4cc(C5CC5)c(CN[C@H](CO)C(=O)OC)cn4)c3C)c2C)cc1C1CC1 [compound 1, reference compound]

>  <Result>
0%

$$$$

---

# Experimental protocol: Pharmacokinetics in mice (exposure and oral availability)
# Format: in vivo
# Assay conditions: male, mouse, 10 mg/kg; ICR mice, PO (10 mpk), dosed compound detected in plasma

>  <Compound>
Cc1c(NC(=O)c2cc(C3CC3)c(CNCC34CCC(C(=O)O)(CC3)C4)cn2)cccc1-c1cccc(NC(=O)c2cc(C3CC3)c(CNCC34CCC(C(=O)O)(CC3)C4)cn2)c1C [Example 4]

>  <Cmax (ng/mL)>
4550

$$$$
>  <Compound>
Cc1c(NC(=O)c2cc(C3CC3)c(CN3CC[C@H](C(=O)O)C3)cn2)cccc1-c1cccc(NC(=O)c2cc(C3CC3)c(CN3CC[C@H](C(=O)O)C3)cn2)c1C [compound 6]

>  <Cmax (ng/mL)>
46.2

$$$$
>  <Compound>
Cc1c(NC(=O)c2cc(C3CC3)c(CNC34CCC(C(=O)O)(CC3)CC4)cn2)cccc1-c1cccc(NC(=O)c2cc(C3CC3)c(CNC34CCC(C(=O)O)(CC3)CC4)cn2)c1C [Example 1]

>  <Cmax (ng/mL)>
1910

$$$$
>  <Compound>
COC(=O)[C@H]1CCN(Cc2cnc(C(=O)Nc3cccc(-c4cccc(NC(=O)c5cc(C6CC6)c(CN6CC[C@H](C(=O)OC)C6)cn5)c4C)c3C)cc2C2CC2)C1 [compound 5]

>  <Cmax (ng/mL)>
30.4

$$$$

---

# Experimental protocol: Pharmacokinetics in mice (exposure and oral availability)
# Assay type: in vivo
# Assay conditions: male, mouse, 10 mg/kg; ICR mice, PO (10 mpk), dosed compound detected in plasma
Attribute measured: AUC(0-t) (ng·h/mL)

>  <Smiles representation>
Cc1c(NC(=O)c2cc(C3CC3)c(CN3CC[C@H](C(=O)O)C3)cn2)cccc1-c1cccc(NC(=O)c2cc(C3CC3)c(CN3CC[C@H](C(=O)O)C3)cn2)c1C

>  <Result unit>
ng·h/mL

>  <Numeric result>
147

$$$$
>  <Smiles representation>
Cc1c(NC(=O)c2cc(C3CC3)c(CNCC34CCC(C(=O)O)(CC3)C4)cn2)cccc1-c1cccc(NC(=O)c2cc(C3CC3)c(CNCC34CCC(C(=O)O)(CC3)C4)cn2)c1C

>  <Result unit>
ng·h/mL

>  <Numeric result>
17600

$$$$
>  <Smiles representation>
Cc1c(NC(=O)c2cc(C3CC3)c(CNC34CCC(C(=O)O)(CC3)CC4)cn2)cccc1-c1cccc(NC(=O)c2cc(C3CC3)c(CNC34CCC(C(=O)O)(CC3)CC4)cn2)c1C

>  <Result unit>
ng·h/mL

>  <Numeric result>
8790

$$$$

---

Reported AUC(0-t) values for the following compounds.
# Experimental protocol: Pharmacokinetics in mice (exposure and oral availability)
# Assay type: in vivo
# Assay conditions: male, mouse, plasma, 2 mg/kg; ICR mice, IV (2 mpk)
Attribute measured: AUC(0-t) (ng·h/mL)

>  <Compound>
Cc1c(NC(=O)c2cc(C3CC3)c(CN[C@H](CO)C(=O)O)cn2)cccc1-c1cccc(NC(=O)c2cc(C3CC3)c(CN[C@H](CO)C(=O)O)cn2)c1C [compound 2, reference compound]

>  <Attribute measured>
AUC(0-t)

>  <Numeric result>
2360

$$$$
>  <Compound>
Cc1c(NC(=O)c2cc(C3CC3)c(CNC34CCC(C(=O)O)(CC3)CC4)cn2)cccc1-c1cccc(NC(=O)c2cc(C3CC3)c(CNC34CCC(C(=O)O)(CC3)CC4)cn2)c1C

>  <Attribute measured>
AUC(0-t)

>  <Numeric result>
9000

$$$$
>  <Compound>
Cc1c(NC(=O)c2cc(C3CC3)c(CNCC34CCC(C(=O)O)(CC3)C4)cn2)cccc1-c1cccc(NC(=O)c2cc(C3CC3)c(CNCC34CCC(C(=O)O)(CC3)C4)cn2)c1C

>  <Attribute measured>
AUC(0-t)

>  <Numeric result>
6110

$$$$

The values you see were collected from patent US20250179023A1.
